Experiment: Solubility of esters in oils (solvent added in increments until a room temperature solubility is obtained)
Assay type: physicochemical
Settings: oil or lipid, thermodynamic from solid; castor oil, room temperature; read-out: Solubility Limit
For each of the compounds below, state its solubility.

compound="CC(=O)[C@H]1CC[C@H]2[C@@H]3CC[C@H]4C[C@H](O)CC[C@]4(C)[C@H]3CC[C@]12C [Allopregnanolone, 5α-pregnan-3α-ol-20-one]" value="< 10000 µg/mL"

Could you now look at the following compound, please?
Ask: # query: solubility of entry CC(=O)[C@H]1CC[C@H]2[C@@H]3CC[C@H]4C[C@](C)(O)CC[C@]4(C)[C@H]3CC[C@]12C [Ganaxalone, 3a-hydroxy-3-methyl-5a-pregnan-20-one]
Result: ~10000 µg/mL
